# Tested on: TO-3-N3 (biotin conjugate)
# METHOD: pull-down binding Z-score (relative to library population); higher = stronger binding
# MEASUREMENT CONTEXT: RNA library: Library-2
So basically: pull-down binding Z-score at -0.4 or higher? That is Condition met. Lower than -0.4? That is Condition not met.

A selection of reference data follows.
BIOSEQUENCE	TARGET SYSTEM	LABEL VALUE
GCUCAGGAUGGUAAUGCUGCUAUCAGC	TO-3-N3 (biotin conjugate)	Condition met
UGCUUCAGUUUCACUCCAAGCA [hsa-mir-4771-2_4771-1]	TO-3-N3 (biotin conjugate)	Condition met
GCCAGUGUGUAAAAUGAGAACUGAUA [hsa-mir-3074]	TO-3-N3 (biotin conjugate)	Condition met
UGCCUUGUAGCAUUCAGGUCAAGCA [hsa-mir-103a-2]	TO-3-N3 (biotin conjugate)	Condition not met
GGGGUUUUUGCCUCCAACUGACUCC [hsa-mir-155]	TO-3-N3 (biotin conjugate)	Condition met

Kindly review the next sequence as well.
Exercise: Is pull-down binding Z-score for CGUUCCAAUGCGACACCUCUAGAGUGUCAUCCCCUAGAAUGUCACCUUGGAAAG [hsa-mir-4432] at or above -0.4?
Key: Condition met

* * *

# System: TO-3-N3-2 (biotin conjugate)
# METHOD: pull-down binding Z-score (relative to library population); higher = stronger binding
# MEASUREMENT CONTEXT: RNA library: Library-2
OUTCOME MEASURE: pull-down binding Z-score

These recorded examples may help you get a feel for the data.
BIOSEQUENCE	RESULT
GUAUCUGAAUUAC	-0.196
UGUUCAUGUCUCUCUGUGCACAGGGGACGAGAGUCA [hsa-mir-4420]	-0.232
AUGGUGCUAACAAAGACGGCAUCAU [SHAPE_invivo_SARS-CoV-2_Motif_545]	-0.105
GGUGUCAUGCCCCAAGAUAACC [hsa-mir-634]	-0.28
GCAAAUUAAUGC	-0.864

Provide pull-down binding Z-score values for the following items, in order.
1. AGGCACAUAUGUGAACAUUGUACCA [hsa-mir-5707]
2. GGGGGCAGGCUGCCACCUCCUG [hsa-mir-8089]
3. UAUAUGCUUUUUAAAUGGGGCACAGA [hsa-mir-5586]
4. ACAUGAAAAUAAAAUGUAAAUUAUUUUAUUUCUAUCA [hsa-mir-3671]
5. GCAUGCCC [hsa-mir-1178]

Key:
0.00393
0.599
0.0323
0.294
0.000996

Exercise: State its pull-down binding Z-score for this sequence: AAUGUAGUAGAAUUAUACCUGCACGUGCUCGUGUAGAGUGUUUUGAUAAAUUCAAAGUGAAUUCAACAUUAGAACAGUAUGUCUUUUGUACUGUAAAUGCAUU
Key: 0.0794

* * *

Assignment: determine reported pull-down binding Z-score for the given sequences.
# System: TO-N3-2 (biotin conjugate)
# METHOD: pull-down binding Z-score (relative to library population); higher = stronger binding
# MEASUREMENT CONTEXT: RNA library: Library-2
Answers are plain numbers.

These recorded examples may help you get a feel for the data.
BIOSEQUENCE	pull-down binding Z-score
CAGAGACUUGAAGAUGUCUUUG [IAV_invivo_M1_M2_7_Motif_2+IAV_invivo_M1_M2_7_Motif_2]	-0.242
UAGAGGGUAAAAUUAAUAACCUUCUA [hsa-mir-628]	-0.888
AAGUGCUUUUGUUAAUUUAAAACAAUUACCAUUU [SHAPE_invitro_SARS-CoV-2_Motif_354]	-0.811
CCAUGCUGUUUAAGCCUAGCAUAG [hsa-mir-4423]	0.476
AUGGUGUUUGUGAGUUGAUUGACAUCGU [hsa-mir-6506]	0.0463

Provide pull-down binding Z-score values for the following items, in order.
1. GGGCAUUCCGGAUAGGCCGAGAAAGUGUUG [hsa-mir-6723]
2. CCCUGGUCAGACUCUCCGGGG [hsa-mir-4675]
3. GCGCUGCCAGAAACUGGCUUUAGCGC [bulge-UUU]
4. AGAAAAUUUUUCUCCAAAGUUUUCU [hsa-mir-4659b]
5. GUGAGUGUCUCUUGUCGC [hsa-mir-1281]

Key:
1.42
-0.561
-0.562
-1.66
0.25

* * *

# System: TO-N3-2 (biotin conjugate)
# METHOD: pull-down binding Z-score (relative to library population); higher = stronger binding
# MEASUREMENT CONTEXT: RNA library: Library-2
So basically: pull-down binding Z-score at -0.5 or higher? That is 1. Lower than -0.5? That is -1.

Exercise: Is pull-down binding Z-score for GGGCCUCCCUGUUCUCAGCGGUCC [IAV_invivo_PA_3_Motif_11+IAV_invivo_PA_3_Motif_11] at or above -0.5?
Key: 1

Exercise: Is pull-down binding Z-score for GGAGAAAAUUCC [IAV_invivo_PA_3_Motif_17+IAV_invivo_PA_3_Motif_17] at or above -0.5?
Key: -1

Exercise: Is pull-down binding Z-score for CUUAGUUUUAAG [DMSMaPseq_invitro_SARS-CoV-2_Motif_263] at or above -0.5?
Key: -1

Exercise: Is pull-down binding Z-score for AAACUUGUGCCCUUUUGGUGAAGUUUUUAACGCCACCAGAUUUGCAUCUGUUU [SHAPE_invivo_SARS-CoV-2_Motif_425] at or above -0.5?
Key: -1

Exercise: Is pull-down binding Z-score for UGUAAAUAACUACAAUUCUCUUAACUCCGUAGCAGUUGC [hsa-mir-7844] at or above -0.5?
Key: 1

Exercise: Is pull-down binding Z-score for CCCUGGGGAGCUGCUGCAGGCAGCAGGUGGGCGGGACGCCAGCAGGCUGUCUAGCUGUUCCCAUGAUGG [hsa-mir-6843] at or above -0.5?
Key: 1

Exercise: Is pull-down binding Z-score for GUGAAUUCAACAU [DMSMaPseq_invitro_SARS-CoV-2_Motif_308] at or above -0.5?
Key: -1

Exercise: Is pull-down binding Z-score for AGGCCUGAGUCUCUCUGCUGCAGAUGGGCUC [hsa-mir-422a] at or above -0.5?
Key: 1

* * *

# System: G-clamp-N3 (biotin conjugate)
# METHOD: pull-down binding Z-score (relative to library population); higher = stronger binding
# MEASUREMENT CONTEXT: RNA library: Library-1 (pre-miRNA loops + repeats)
So basically: pull-down binding Z-score at 0.08 or higher? That is Satisfied. Lower than 0.08? That is Not satisfied.

A selection of reference data follows.
BIOSEQUENCE	TARGET SYSTEM	LABEL VALUE
CAUUUCAGCGUAUAUAUGUAUAUGUGGCUGUG [hsa-mir-19b-2]	G-clamp-N3 (biotin conjugate)	Satisfied
UGGAGGGGGUUUGUUUGCUUAUUCCCCUCU [hsa-mir-6737]	G-clamp-N3 (biotin conjugate)	Satisfied
CAUCACUGGAAUGUUCCAGCGACU [hsa-mir-3654]	G-clamp-N3 (biotin conjugate)	Not satisfied
CAUUUCCUUCAUGAUUAGGAAUACUACUUUGAAAUG [hsa-mir-4712]	G-clamp-N3 (biotin conjugate)	Not satisfied
GCAUAAAAACAACUUUUGGGGGACAGGUAUGUUUUCUUGC [hsa-mir-5047]	G-clamp-N3 (biotin conjugate)	Not satisfied
AGUGGCCAAUUCCU [hsa-mir-4251]	G-clamp-N3 (biotin conjugate)	Not satisfied
AUCUGCAGGGCAUUGUGCUAACAGGU [hsa-mir-4681]	G-clamp-N3 (biotin conjugate)	Satisfied
GCGGGGUGUGGUGGGGCUGGGGCUGGCCCCCUCCUCACACCUC [hsa-mir-6800]	G-clamp-N3 (biotin conjugate)	Satisfied

Exercise: Is pull-down binding Z-score for GGGCUCGUGAUGGCUGGUGGGCCC [hsa-mir-345] at or above 0.08?
Key: Satisfied

Exercise: Is pull-down binding Z-score for UGCCUACUACUGAUGACAUACAAUGUAAGUGCUCAUUUAGGCG [hsa-mir-5696] at or above 0.08?
Key: Not satisfied

* * *

# Test system: TO-N3-2 (biotin conjugate)
# METHOD: pull-down binding Z-score (relative to library population); higher = stronger binding
# MEASUREMENT CONTEXT: RNA library: Library-2
Assignment: determine reported pull-down binding Z-score for the given sequences.
Numbers only.

These recorded examples may help you get a feel for the data.
BIOSEQUENCE	pull-down binding Z-score
GGCCAUCUGGCC [hsa-mir-4252]	-1.01
CUCCAGGAGGGG [IAV_invivo_PB2_1_Motif_10+IAV_invivo_PB2_1_Motif_10]	-0.309
CAGGUAUGAAUGAUACUUACCUG [U1snRNP5ss-11]	0.225
CUGGCAUUUACGAGUCAGAGUUCUUACAGAGCUGC [hsa-mir-6514]	1.48
GAAGGGGAGUUUCCCUCUAUUCCCUUC [hsa-mir-3679]	-0.594

Provide pull-down binding Z-score values for the following items, in order.
1. GGGACAUUGCGGAGAGGGUCUCACAUUGUCCC [hsa-mir-4646]
2. UCCCAUGAGGGG [IAV_invivo_HA_4_Motif_6+IAV_invivo_HA_4_Motif_6]

Key:
1. 0.488
2. -1.39
